# target_or_system: Cytochrome P450 2C19 (Homo sapiens) (UniProt P33261)
# Sequence (P33261 whole entry, looked up): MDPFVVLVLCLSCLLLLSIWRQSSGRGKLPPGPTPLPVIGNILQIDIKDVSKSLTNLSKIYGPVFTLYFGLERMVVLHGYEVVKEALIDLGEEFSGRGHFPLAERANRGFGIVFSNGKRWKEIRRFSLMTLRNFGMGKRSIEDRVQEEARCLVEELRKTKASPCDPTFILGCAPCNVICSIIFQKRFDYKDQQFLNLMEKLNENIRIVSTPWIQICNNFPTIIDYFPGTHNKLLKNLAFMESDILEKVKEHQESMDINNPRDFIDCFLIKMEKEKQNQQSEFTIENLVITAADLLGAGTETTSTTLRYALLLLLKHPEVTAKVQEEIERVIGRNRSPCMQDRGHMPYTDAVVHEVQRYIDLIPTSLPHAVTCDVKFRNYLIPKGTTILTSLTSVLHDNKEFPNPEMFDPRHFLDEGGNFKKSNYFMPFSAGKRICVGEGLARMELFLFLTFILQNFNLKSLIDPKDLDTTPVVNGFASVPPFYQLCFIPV
# assay_info: qHTS Assay for Inhibitors and Substrates of Cytochrome P450 2C19 (AID 899); note: potency is the fitted concentration of half-maximal effect; nearly all actives have a fitted effect of over 60% in size
# settings: recombinant CYP2C19, luciferin-H EGE luminescence; series mostly up to 57.1 µM
Results filed as inconclusive are left out. Active and inactive are the calls of the source. Calls come from the whole dose curve; as a rule, active = well fitted inhibition curve with a large enough effect; inconclusive = small, poorly fitted or top-dose-only effect; inactive = no such curve, though single readings can be large or run the other way.
quantity_measured: Potency

Answered examples (6):
The reported value for COc1cccc(-c2ccc3ncnc(Nc4ccccc4)c3c2)c1 in terms of Potency is 0.501 µM (active)

The reported value for COc1ccc2[nH]cc(CCNc3ncncc3-c3ccccc3Cl)c2c1 in terms of Potency is 0.0631 µM (active)

The reported value for COc1ccc2[nH]cc(CCNc3cc(-c4ccccc4OC)ncn3)c2c1 in terms of Potency is 3.16 µM (active)

The reported value for COc1cccc(-c2cncnc2NCc2ccccc2OC)c1 in terms of Potency is 2 µM (active)

The reported value for COc1cccc(-c2cncnc2NCCc2c[nH]c3ccc(OC)cc23)c1 in terms of Potency is 0.316 µM (active)

The reported value for COc1ccccc1CNc1ncncc1-c1ccccc1C(F)(F)F in terms of Potency is 1.58 µM (active)

---
The reported value for Cc1ccccc1-c1ccc2ncnc(-n3ccnc3)c2c1 in terms of Potency is 2 µM (active)

The reported value for Cc1nc2cnc(N3CCN(C)CC3)nc2n(CCc2ccccc2)c1=O in terms of Potency is 5.01 µM (active)

The reported value for COc1cccc(Cn2c(=O)cnc3cnc(N(C)C)nc32)c1 in terms of Potency is 2.51 µM (active)

---

# target_or_system: Cytochrome P450 1A2 (Homo sapiens)
# assay_info: qHTS for inhibitors of CYPIA2 against the NCATS DSHEA and TCM libraries (AID 1919976)
# settings: recombinant CYP1A2 enzyme activity, luminescence; series mostly up to 37 µM
Results filed as inconclusive are left out. Active and inactive are the calls of the source. Calls come from the whole dose curve; as a rule, active = well fitted inhibition curve with a large enough effect; inconclusive = small, poorly fitted or top-dose-only effect; inactive = no such curve, though single readings can be large or run the other way.
Choose one outcome from this list and give only that: 1.0 (active), 0.0 (inactive)

// query // outcome(item) with item = O=C(/C=C/c1ccc(O)c(O)c1)O[C@@H]1CC(O)(C(=O)O)C[C@@H](OC(=O)/C=C/c2ccc(O)c(O)c2)C1O (stereo partly drawn)
// result 0.0

// query // outcome(item) with item = C=C/C(C)=C/C/C=C(\C)CCC=C(C)C
// result 0.0

// query // outcome(item) with item = COc1ccc(/C=C/c2cc(OC)cc(=O)o2)cc1
// result 1.0

// query // outcome(item) with item = C=C1CC[C@H]2C[C@@H]1C2(C)C
// result 0.0

// query // outcome(item) with item = O=C(/C=C/c1ccc(O)c(O)c1)O[C@H]1[C@H](O)C[C@](O)(C(=O)O)C[C@H]1OC(=O)/C=C/c1ccc(O)c(O)c1
// result 0.0

// query // outcome(item) with item = OCC1=C[C@@H](O)[C@@H]2C=CO[C@@H](OC3O[C@H](CO)[C@@H](O)[C@H](O)[C@H]3O)[C@H]12 (stereo partly drawn)
// result 0.0

// query // outcome(item) with item = COc1ccc(C(=O)O)cc1
// result 0.0

// query // outcome(item) with item = Oc1cc(O)c2c(c1)O[C@@H](c1cc(O)c(O)c(O)c1)[C@H](O)C2
// result 1.0

// query // outcome(item) with item = COc1cc(/C=C/c2ccccc2)oc(=O)c1
// result 1.0

// query // outcome(item) with item = C=C1C[C@@]23CC[C@H]4[C@@](C)(CCC[C@@]4(C)C(=O)O[C@@H]4O[C@H](CO)[C@@H](O)[C@H](O)[C@H]4O[C@@H]4O[C@H](CO)[C@@H](O)[C@H](O)[C@H]4O)[C@@H]2CC[C@]1(O[C@@H]1O[C@H](CO)[C@@H](O)[C@H](O)[C@H]1O[C@@H]1O[C@H](CO)[C@@H](O)[C@H](O)[C@H]1O)C3
// result 0.0

---
// query // outcome(item) with item = O=C(/C=C/c1ccc(O)c2c1[C@H](C(=O)O)[C@@H](c1ccc(O)c(O)c1)O2)O[C@H](Cc1ccc(O)c(O)c1)C(=O)O
// result 0.0

// query // outcome(item) with item = O=C(O[C@@H]1Cc2c(O)cc(O)cc2O[C@@H]1c1ccc(O)c(O)c1)c1cc(O)c(O)c(O)c1
// result 0.0

// query // outcome(item) with item = O=C(/C=C/c1ccc(O)c(O)c1)OC1[C@H](O)CC(O)(C(=O)O)C[C@@H]1O (stereo partly drawn)
// result 0.0

---

# target_or_system: Cytochrome P450 1A2 (Homo sapiens) (UniProt P05177)
# Sequence (P05177 whole entry, looked up): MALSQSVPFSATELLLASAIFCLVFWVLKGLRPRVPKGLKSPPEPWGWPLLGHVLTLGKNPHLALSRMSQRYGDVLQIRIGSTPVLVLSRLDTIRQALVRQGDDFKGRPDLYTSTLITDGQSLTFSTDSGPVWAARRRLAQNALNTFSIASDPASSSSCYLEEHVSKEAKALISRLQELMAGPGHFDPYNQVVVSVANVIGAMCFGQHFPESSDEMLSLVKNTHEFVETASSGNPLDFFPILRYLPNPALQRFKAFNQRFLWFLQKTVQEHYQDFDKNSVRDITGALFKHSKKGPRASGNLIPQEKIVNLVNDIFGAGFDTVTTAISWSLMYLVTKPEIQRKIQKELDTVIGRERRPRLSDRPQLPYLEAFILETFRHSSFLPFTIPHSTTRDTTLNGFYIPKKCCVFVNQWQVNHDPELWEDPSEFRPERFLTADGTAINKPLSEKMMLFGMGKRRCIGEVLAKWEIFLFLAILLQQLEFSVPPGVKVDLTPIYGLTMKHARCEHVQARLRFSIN
# assay_info: p450-cyp1a2 (AID 410)
# settings: recombinant CYP1A2, luciferin-ME demethylation, luminescence; series mostly up to 57 µM
Results filed as inconclusive are left out. The source made the active and inactive calls. The call rests on the fitted dose curve.
Choose one outcome from this list and give only that: active, inactive

# example entries with known answers
// query // outcome(item) with item = Cc1nc2cnc(N3CCN(C)CC3)nc2n(CCc2ccccc2)c1=O
// result active

// query // outcome(item) with item = COc1ccccc1CNc1ncncc1-c1ccc2c(c1)OCO2
// result active

// query // outcome(item) with item = COc1ccc(-n2c(=O)c(CCc3ccccc3)nc3cnc(OC)nc32)cc1
// result active

// query // outcome(item) with item = COc1cccc(-c2cncnc2NCCc2c[nH]c3ccc(OC)cc23)c1
// result active

---
// query // outcome(item) with item = COc1ccc2[nH]cc(CCNc3cc(-c4ccccc4OC)ncn3)c2c1
// result active

// query // outcome(item) with item = COc1ccccc1CNc1ncnc2ccc(-c3cccc(NS(C)(=O)=O)c3)cc12
// result active

// query // outcome(item) with item = Cc1cc(N)c2ccccc2[n+]1CCCCCCCCCCCCCC[n+]1c(C)cc(N)c2ccccc21
// result inactive

// query // outcome(item) with item = COc1cccc(-c2ccc3ncnc(NCc4ccc(OC)cc4OC)c3c2)c1
// result active

// query // outcome(item) with item = COc1ccc2[nH]cc(CCNc3ncnc4ccc(-c5ccoc5)cc34)c2c1
// result active

// query // outcome(item) with item = COc1ccc(-c2oc3ccc(C)cc3c(=O)c2O)cc1OC
// result active

// query // outcome(item) with item = CCNc1ncc2ncc(=O)n(Cc3cccc(OC)c3)c2n1
// result active

// query // outcome(item) with item = COc1cc2cc3c4c(cc(OC)c(OC)c4c2cc1OC)CCN3C
// result active

---

# Test system: DIV14
# assay_info: qHTS profiling for inhibitors of Plasmodium falciparum proliferation (AID 504749); note: nearly all actives have a fitted effect of over 60% in size
# settings: P. falciparum in erythrocytes, SYBR Green DNA, 72 h; series mostly up to 28.7 µM
Inconclusive results are not listed. Active and inactive are the calls of the source. The call rests on the fitted dose curve; in most records, active means well fitted inhibition curve with a large enough effect; inconclusive means small, poorly fitted or top-dose-only effect; inactive means flat fitted curve, though single readings scatter.
Choose one outcome from this list and give only that: Y for active, N for inactive

// query // outcome(item) with item = CCC(=O)O[C@@H](OP(=O)(CCCCc1ccccc1)CC(=O)N1C[C@H](C2CCCCC2)C[C@H]1C(=O)O)C(C)C (stereo partly specified)
// result N

// query // outcome(item) with item = CC1CCC(C(C)C)C(OC(=O)c2ccccc2O)C1 (stereo unspecified)
// result N

// query // outcome(item) with item = CCC(C)n1ncn(-c2ccc(N3CCN(c4ccc(OCC5COC(Cn6cncn6)(c6ccc(Cl)cc6Cl)O5)cc4)CC3)cc2)c1=O (stereo unspecified)
// result N

// query // outcome(item) with item = CN1CC[C@H](CN2c3ccccc3Sc3ccccc32)C1
// result Y

// query // outcome(item) with item = CC1(C)S[C@@H]2[C@H](NC(=O)COc3ccccc3)C(=O)N2[C@H]1C(=O)O
// result N

Consider the additional molecule presented here.
// query // outcome(item) with item = Nc1nc(Cl)nc2c1ncn2C1CC(O)C(CO)O1 (stereo unspecified)
// result N

---

# target_or_system: Rap guanine nucleotide exchange factor 3 (Homo sapiens)
# assay_info: Confirmatory qHTS for antagonist of cAMP-regulated guanine nucleotide exchange factor 3 (EPAC1) (AID 1645880); note: nearly all actives have a fitted effect of over 55% in size
# settings: EPAC1 Rap1B-BODIPY-GDP exchange, fluorescence
Results filed as inconclusive are left out. Calls of active or inactive are those of the source. The call rests on the fitted dose curve; in most records, active means well fitted inhibition curve with a large enough effect; inconclusive means small, poorly fitted or top-dose-only effect; inactive means no such curve, though single readings can be large or run the other way.
Choose one outcome from this list and give only that: TRUE for active, FALSE for inactive

// query // outcome(item) with item = O=C(O)Cc1ccc(C(=O)c2ccc(Cl)cc2Cl)s1
// result FALSE

// query // outcome(item) with item = CCOC(=O)c1c(NC(=O)c2ccccc2OCC)sc2c1CCC(CC)C2 (centres undefined)
// result FALSE

// query // outcome(item) with item = CC1(C)C(OC(=O)CCC(=O)O)CC[C@]2(C)C1CC[C@@]1(C)C2C(=O)C=C2[C@@H]3C[C@@](C)(C(=O)O)CC[C@]3(C)CCC21C (some centres undefined)
// result FALSE

// query // outcome(item) with item = COc1cccc(NS(=O)(=O)c2ccc3c(c2)C2C=CCC2C(c2ccc(C(=O)O)cc2)N3)c1 (centres undefined)
// result TRUE

// query // outcome(item) with item = COc1ccc(Br)cc1CNc1ccc(O)cc1
// result FALSE

---
// query // outcome(item) with item = Cc1ccc2[nH]cc(/C=C/c3cc[n+](C)cc3)c2c1
// result FALSE

// query // outcome(item) with item = O=C(c1ccccc1)c1cccc(C(=O)c2ccccc2)c1
// result FALSE

// query // outcome(item) with item = CC(OC(=O)c1ccccc1Oc1ccccc1)C(=O)NC1CC1 (centres undefined)
// result FALSE

// query // outcome(item) with item = O=C1C=CC(=O)c2c(O)c(N3CCN(CCO)CC3)c(Cl)c(O)c21
// result TRUE
